Each recorded value in this set is attributed to patent US9198875B2.

The reader will find reported solubility values listed item by item below.
procedure-summary: Solubility of drugs in water and complexed with cyclodextrins
Assay type: physicochemical
measurement-context: drug complexed with cyclodextrins, aqueous with cosolvent or surfactant or cyclodextrin; read-out: St, solubility complexed with cyclodextrins

molecule: O=C(O)Cc1ccccc1Nc1c(Cl)cccc1Cl
solubility / µg/mL: 2800
//
molecule: CC(C(=O)O)c1ccc(-c2ccccc2)c(F)c1 (centres unmarked)
solubility / µg/mL: 540

---

procedure-summary: Solubility of drugs in water and complexed with cyclodextrins
Assay type: physicochemical
measurement-context: in water; read-out: S0, solubility in water
measured-endpoint: solubility

smiles-data: O=C(O)Cc1ccccc1Nc1c(Cl)cccc1Cl
readout-value: 2 µg/mL
